Cited source for all entries: the supplement of paper PMC9233669

system: biotinyl-Val-oxazolone; assay: self-aminoacylation, catalytic enhancement (BVO) (fold over background); higher = more active; k-Seq, kA / k0A0; sequences stand for … in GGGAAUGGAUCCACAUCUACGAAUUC…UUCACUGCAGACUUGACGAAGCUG
Fewer inactive variants are shown than the library holds.
endpoint-label: self-aminoacylation
Give bare numbers.

Worked cases, answers included:
q: Field request: self-aminoacylation | item: AUACUCCUAGGUCAUCGGGUG [Fam2.2 aminoacylation ribozyme variant]
a: 2.98

q: Field request: self-aminoacylation | item: CUUACCCUGGUCAUCGAGUAA [Fam2.1 aminoacylation ribozyme variant]
a: 2.8

q: Field request: self-aminoacylation | item: AAUCACCUAGGUCAUCGGGUG [Fam2.2 aminoacylation ribozyme variant]
a: 5.65

In the following, a different sequence is considered.
q: Field request: self-aminoacylation | item: CUACUUCAAUCAAUCGGUCUG [Fam1A.1 aminoacylation ribozyme variant]
a: 1.03

###

test system: biotinyl-Phe-oxazolone; test: self-aminoacylation, catalytic enhancement (BFO) (fold over background); higher = more active; k-Seq, kA / k0A0; sequences stand for … in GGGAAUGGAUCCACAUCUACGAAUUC…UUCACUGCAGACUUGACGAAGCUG
Variants at the floor of the assay were thinned out.
endpoint-label: self-aminoacylation
Numbers only.

Worked cases, answers included:
q: Field request: self-aminoacylation | item: CUAUUUCAAACAAUCGGUCUU [Fam1A.1 aminoacylation ribozyme variant]
a: 2.72

q: Field request: self-aminoacylation | item: AUUACCCAGGUCAUCCAGUGA [Fam2.1 aminoacylation ribozyme variant]
a: 24.2

q: Field request: self-aminoacylation | item: AAGUUUGCUGAUAGUCGCAAU [Fam3.1 aminoacylation ribozyme variant]
a: 1.68

q: Field request: self-aminoacylation | item: CCACACUUCAAGGAAUUGGUC [Fam1B.1 aminoacylation ribozyme variant]
a: 0.734

q: Field request: self-aminoacylation | item: AUUACCCUGGUCAUCGAGUAU [Fam2.1 aminoacylation ribozyme variant]
a: 97.7

Count: 3. Required value per item: self-aminoacylation.
1. UCACACUUCAAGCAACCGGUC [Fam1B.1 aminoacylation ribozyme variant]
2. AUCACCCUGGGCAUCGAGUGA [Fam2.1 aminoacylation ribozyme variant]
3. AGGUUUCCUAAUAGUCGCAAG [Fam3.1 aminoacylation ribozyme variant]

a:
1: 1.26; 2: 69.7; 3: 2.49

###

test system: biotinyl-Val-oxazolone; experiment: self-aminoacylation, catalytic enhancement (BVO) (fold over background); higher = more active; k-Seq, kA / k0A0; sequences stand for … in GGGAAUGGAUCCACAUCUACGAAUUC…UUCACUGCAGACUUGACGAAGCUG
This sample holds only a part of the variants without activity.
Provide the recorded self-aminoacylation for the entries that follow.
One number for each entry.

q: Field request: self-aminoacylation | item: AUGUUUGCUAAUUGUCGCAAG [Fam3.1 aminoacylation ribozyme variant]
a: 1.17

q: Field request: self-aminoacylation | item: AUUACCCUGGUCAUCGAGUGC [Fam2.1 aminoacylation ribozyme variant]
a: 4.71

q: Field request: self-aminoacylation | item: AUUCACCUAGGUCAACGGUUG [Fam2.2 aminoacylation ribozyme variant]
a: 0.808

q: Field request: self-aminoacylation | item: AAGUUUGAUAAGAGUCGCAAG [Fam3.1 aminoacylation ribozyme variant]
a: 1.12

In the following, a different sequence is considered.
q: Field request: self-aminoacylation | item: CCACGGUUCAAGCAAUCGGUC [Fam1B.1 aminoacylation ribozyme variant]
a: 1.22
